Data provenance is patent US5242945A.

Tested on: purified PLA2, from the diamond back cotton mouth snake (A. piscivorus piscivorus)
Protocol: in vivo PLA2 murine paw edema assay
Design: species or system A. piscivorus piscivorus PLA2 in CD-1 mice
Condition Notes: p.o.; at +10 min
Exercise: for every item that follows, state its recorded ED50 at +10 min..
Answers are plain numbers, in mg/kg.

Illustrative cases are given below, each with its answer.
1) NC1=NN(c2cccc(C(F)(F)F)c2)CC1 [BW 755c, reference compound]	50
2) COc1ccc2cc([C@H](C)C(=O)O)ccc2c1 [Naproxen, reference compound]	18

Now examine the next entry.
-- ask Reported ED50 at +10 min. for CN1CCC(=C2c3ccccc3C=Cc3ccccc32)CC1 [Cyproheptadine, reference compound] : what is it?
-- reply 3.1

###

Test system: 5-lipoxygenase (LTC4)
Protocol: resident murine peritoneal macrophage assay, LTC4
Format: cell-based, mouse (Swiss Webster)
Condition Notes: Mus musculus, Peritoneal macrophage; zymosan stimulation; 0.1 μM
Experimental Endpoint: inhibition at 0.1 µM

1. CC(C)(C)c1ccc(CCCCCCCCCC(=O)C2=C(O)COC2=O)cc1 [Example 43]	71%
2. CCCCCCCCCCC[C@@H]1C[C@@H]1CCCCC(=O)C1=C(O)COC1=O (relative stereo) [Example 55]	80.3%

Return reported inhibition at 0.1 µM values for all items listed beneath this line.
1. O=C(CCCCCCCCCc1ccc(Cl)c(Cl)c1)C1=C(O)COC1=O [Example 42]
2. CCCCCCCC/C=C\CCCCCCCC(=O)C1=C(O)CSC1=O [Example 47]
3. CCCCC/C=C\C/C=C\C/C=C\CCCCC(=O)C1=C(O)CSC1=O [Example 50]
4. CCCC[C@@H]1C[C@@H]1CCCCCCCC(=O)C1=C(O)COC1=O (relative stereo) [Example 54]
5. O=C(CCCCCCCCCc1ccc(Cl)cc1)C1=C(O)COC1=O [Example 41]

-- reply
1. 58%
2. 46.2%
3. 38.8%
4. 59.3%
5. 61%

###

Exercise: for every item that follows, state its recorded inhibition at 50 µM.
System Name: human platelet PLA2 (Homo sapiens, UniProt P14555)
Construct: platelet acid extract PLA2; from tissue; host or cells: human platelets, semipurified acid extract
Protocol: in vitro isolated phospholipase A2 assay, human platelet PLA2
Assay type: biochemical
Condition Notes: at 50 μM; read-out: % Inhibition HP (human platelet)
Answers are plain numbers, in %.

Illustrative cases are given below, each with its answer.
1. O=C(COCc1ccccc1)C1=C(O)COC1=O	3.5
2. O=C(CCc1c[nH]c2ccccc12)C1=C(O)COC1=O	10
3. O=C(CCCc1c[nH]c2ccccc12)C1=C(O)COC1=O	0

Now examine the next entry.
-- ask Reported inhibition at 50 µM for O=C(CCc1ccccc1)C1=C(O)COC1=O : what is it?
-- reply 8

###

Tested on: LTB4 biosynthesis in purified human neutrophils
Protocol: LTB4 biosynthesis in human polymorphonuclear neutrophils (in vitro phospholipase A2 assay)
Type: cell-based
Condition Notes: Neutrophil; 50 μM; human PMN
Exercise: for every item that follows, state its recorded inhibition at 50 µM.
Numbers only, in %.

1) CCCCCCCC/C=C\CCCCCCCC(=O)C1=C(O)COC1=O	100
2) CCCCC/C=C\C/C=C\CCCCCCCC(=O)C1=C(O)CSC1=O	39
3) CCCCC/C=C\C/C=C\C/C=C\CCCCC(=O)C1=C(O)COC1=O	95

Return reported inhibition at 50 µM values for all items listed beneath this line.
1. CCCCCCCC/C=C\CCCCCCCC(=O)C1=C(O)CSC1=O
2. CC/C=C\C/C=C\C/C=C\CCCCCCCC(=O)C1=C(O)COC1=O

-- reply
1: 47; 2: 68

Return reported inhibition at 50 µM values for all items listed beneath this line.
1. O=C(CCCCCCC/C=C\c1ccc(Cl)cc1)C1=C(O)COC1=O
2. CCCC/C=C\CCCCCCCC(=O)C1=C(O)COC1=O

-- reply
1: 98.5; 2: 97

###

Exercise: for every item that follows, state its recorded inhibition at 10 µM.
System Name: human platelet PLA2 (Homo sapiens, UniProt P14555)
Construct: platelet acid extract PLA2; from tissue; host or cells: human platelets, semipurified acid extract
Protocol: in vitro isolated phospholipase A2 assay, human platelet PLA2
Format: biochemical
Condition Notes: at 10 μM; + values given without explanation; read-out: % Inhibition HP (human platelet)
Remember to put the unit after the number in your answer.

1) CCCCCCCCCCCCNC(=O)OCC(CCC(=O)O)OC(=O)NCCCCCCCCCCCC (stereo not drawn) [Example 31A]	47.7%
2) CC(C)(C)CC(C)(C)c1ccc(OCCCCCC(=O)C2=C(O)COC2=O)cc1	24.4%
3) CCCCCCCC[C@@H]1C[C@@H]1CCCCCCCC(=O)C1=C(O)CSC1=O (relative stereo)	8.4%
4) CCCCCCOc1ccc(OCCCCCC(=O)C2=C(O)COC2=O)cc1	37.1%
5) CCCCC/C=C\C/C=C\CCCCCCCC(=O)C1=C(O)COC1=O	44%
6) COc1ccc(/C=C/C(=O)C2=C(O)COC2=O)cc1	0%
7) O=C(/C=C/c1cccc(C(F)(F)F)c1)C1=C(O)COC1=O	9.6%
8) CCCCCC/C=C\CCCCCCCC(=O)C1=C(O)COC1=O	24.4%

-- ask Recorded inhibition at 10 µM for CCCCCCCCCC(=O)C1=C(O)COC1=O [Example 1, 4-Hydroxy-3-(1-oxodecyl)-2(5H)-furanone] with human platelet PLA2 (Homo sapiens, UniProt P14555), please?
-- reply 14.9%

###

System Name: human platelet PLA2 (Homo sapiens)
Construct: platelet acid extract PLA2; from tissue; host or cells: human platelets, semipurified acid extract
Protocol: in vitro isolated phospholipase A2 assay, human platelet PLA2
Assay type: biochemical
Condition Notes: at 10 μM; + values given without explanation; read-out: % Inhibition HP (human platelet)
Label scheme, based on inhibition at 10 µM: group A (below 30%), group B (30% to below 60%), group C (60% or more)

Please review the following examples before continuing.
1) CCCCCCCCC#CCCCCCCCC(=O)C1=C(O)COC1=O	group B
2) O=C(/C=C/c1cccc([N+](=O)[O-])c1)C1=C(O)COC1=O	group A
3) O=C(CCCCCCC/C=C\c1ccc(Cl)cc1)C1=C(O)COC1=O	group C
4) O=C(CCCCCOc1ccc(Cl)cc1)C1=C(O)COC1=O	group A
5) CCCCCCCC/C=C\CCCCCCCC(=O)OCC(CCC(=O)O)OC(=O)CCCCCCC/C=C\CCCCCCCC (stereo not drawn) [Example 24A]	group B

-- ask State the band of CCCCC/C=C\C/C=C\C/C=C\CCCCC(=O)C1=C(O)COC1=O
-- reply group C

-- ask State the band of O=C(CCCCCCCCCc1ccc(C(F)(F)F)cc1)C1=C(O)COC1=O
-- reply group C

-- ask State the band of O=C(CCCCCOc1ccc(OCc2ccc(Cl)cc2)cc1)C1=C(O)COC1=O
-- reply group B

###

System Name: human synovial fluid PLA2 (Homo sapiens)
Construct: Purified human synovial fluid; from tissue; host or cells: human synovial fluid
Protocol: in vitro isolated phospholipase A2 assay, human synovial fluid PLA2
Type: biochemical
Condition Notes: at 50 μM; read-out: % Inhibition HSF (human synovial fluid)
Exercise: for every item that follows, state its recorded inhibition at 50 µM.
Numbers only, in %.

Illustrative cases are given below, each with its answer.
1. O=C(CCc1ccccc1)C1=C(O)COC1=O	27
2. O=C(CCc1c[nH]c2ccccc12)C1=C(O)COC1=O	25
3. O=C(COCc1ccccc1)C1=C(O)COC1=O	25

Now examine the next entry.
-- ask Recorded inhibition at 50 µM for O=C(CCCc1c[nH]c2ccccc12)C1=C(O)COC1=O with human synovial fluid PLA2 (Homo sapiens), please?
-- reply 11

###

System Name: human synovial fluid PLA2 (Homo sapiens, UniProt P14555)
Construct: Purified human synovial fluid; from tissue; host or cells: human synovial fluid
Sequence (P14555 21-144): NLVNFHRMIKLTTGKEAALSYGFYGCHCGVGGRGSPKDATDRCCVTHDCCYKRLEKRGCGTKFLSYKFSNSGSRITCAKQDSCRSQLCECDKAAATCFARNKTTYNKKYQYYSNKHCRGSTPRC
Protocol: in vitro isolated phospholipase A2 assay, human synovial fluid PLA2
Assay type: biochemical
Condition Notes: at 10 μM; + values given without explanation; read-out: % Inhibition HSF (human synovial fluid)
Experimental Endpoint: inhibition at 10 µM

1. CCCCCC1CC1CC1CC1CCCCCCCC(=O)C1=C(O)COC1=O (stereo not drawn) [Example 22]	89.8%

Return reported inhibition at 10 µM values for all items listed beneath this line.
1. CCCCCCCC/C=C\CCCCCCCC(=O)C1=C(O)CSC1=O [Example 47]
2. O=C(CCCCCCCCCc1ccc(Br)cc1)C1=C(O)COC1=O [Example 44]

-- reply
34.8%
37%

###

System: cyclooxygenase (PGE2)
Protocol: resident murine peritoneal macrophage assay, PGE2
Type: cell-based, mouse (Swiss Webster)
Condition Notes: Mus musculus, Peritoneal macrophage; zymosan stimulation; 0.1 μM
Method: The ability of the compounds of the invention to act as inhibitors of the enzymes 5-lipoxygenase and cyclooxygenase is measured in the resident murine peritoneal macrophage assay. […] Residual serum and cellular debris are removed from the monolayers by washing 3× with 2 ml HBSS containing Ca^++ and Mg^++. […] In all cases, results are expressed as ng metabolite/4×10^6 cells. […]
Exercise: for every item that follows, state its recorded inhibition at 0.1 µM.
Answers are plain numbers, in %.

Illustrative cases are given below, each with its answer.
1) CCCCCCCCCCC[C@@H]1C[C@@H]1CCCCC(=O)C1=C(O)COC1=O (relative stereo)	39.2
2) CCCCC/C=C\C/C=C\C/C=C\CCCCC(=O)C1=C(O)CSC1=O	21.6
3) O=C(CCCCCCCCCc1ccc(Cl)cc1)C1=C(O)COC1=O	29
4) CCCCC/C=C\C/C=C\CCCCCCCC(=O)C1=C(O)CSC1=O	51.9
5) CCCCCCCCCCC/C=C\CCCCC(=O)C1=C(O)CSC1=O	0.5

Return reported inhibition at 0.1 µM values for all items listed beneath this line.
1. CCCCCCCC/C=C\CCCCCCCC(=O)C1=C(O)CSC1=O
2. CCCC/C=C\CCCCCCCC(=O)C1=C(O)CSC1=O
3. CCCC[C@@H]1C[C@@H]1CCCCCCCC(=O)C1=C(O)COC1=O (relative stereo)
4. CC(C)(C)c1ccc(CCCCCCCCCC(=O)C2=C(O)COC2=O)cc1
5. O=C(CCCCCCCCCc1ccc(Br)cc1)C1=C(O)COC1=O
6. O=C(CCCCCCCCCc1ccc(Cl)c(Cl)c1)C1=C(O)COC1=O

-- reply
1: 48.4; 2: 71.8; 3: 49.5; 4: 54; 5: -20; 6: -8
